Reported viability, T/C values follow for various compounds
Tested on: NCI-H196 SCLC complex tumor spheroid viability
assayProtocol: Anticancer human tumor NCI-H196 cell line growth inhibition;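 further: spheroids exposed to compounds for 7 days before readout; 100% = DMSO vehicle control wells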
assayContext: second compound 30 pM; first compound 1 µM; active compounds read low
valueKind: viability, T/C (%)

compound	resultUnit	valueMeasured
[2H]c1nc(C)nc([2H])c1-c1cc(NC[C@@H](C)c2cccc3c(C(=O)NC)ccnc23)ncn1 + COc1cc2c(cc1O)CCNC21CSC2c3c(OC(C)=O)c(C)c4c(c3C(COC1=O)N1C(O)C3Cc5cc(C)c(OC)c(O)c5C(C21)N3C)OCO4	%	104
COc1ccc([C@@H](O)c2cc(-c3ncnc4cc(N5CCOCC5)ccc34)c(F)cc2Cl)nn1 + COc1cc2c(cc1O)CCNC21CSC2c3c(OC(C)=O)c(C)c4c(c3C(COC1=O)N1C(O)C3Cc5cc(C)c(OC)c(O)c5C(C21)N3C)OCO4	%	77.8
Cc1cc(C)c(CNC(=O)c2cc(-c3ccc(CN4CCOCC4)cc3)cc3c2cnn3C2CCCC2)c(=O)[nH]1 + COc1cc2c(cc1O)CCNC21CSC2c3c(OC(C)=O)c(C)c4c(c3C(COC1=O)N1C(O)C3Cc5cc(C)c(OC)c(O)c5C(C21)N3C)OCO4	%	103
COc1cc(C)[nH]c(=O)c1CN1CCc2c(Cl)cc(C(OC)C3COC3)c(Cl)c2C1=O (stereo unspecified) + COc1cc2c(cc1O)CCNC21CSC2c3c(OC(C)=O)c(C)c4c(c3C(COC1=O)N1C(O)C3Cc5cc(C)c(OC)c(O)c5C(C21)N3C)OCO4	%	101
CC1COCCN1c1cc(-c2ccnn2C)c2ccnc(-c3ccn[nH]3)c2n1 (stereo unspecified) + COc1cc2c(cc1O)CCNC21CSC2c3c(OC(C)=O)c(C)c4c(c3C(COC1=O)N1C(O)C3Cc5cc(C)c(OC)c(O)c5C(C21)N3C)OCO4	%	56.7
CC(C)n1c(=O)n(C)c2cnc3cc(F)c(-c4ccc(OCCCN5CCCCC5)nc4)cc3c21 + COc1cc2c(cc1O)CCNC21CSC2c3c(OC(C)=O)c(C)c4c(c3C(COC1=O)N1C(O)C3Cc5cc(C)c(OC)c(O)c5C(C21)N3C)OCO4	%	104

====

System: NCI-H196 SCLC complex tumor spheroid viability
assayProtocol: Anticancer human tumor NCI-H196 cell line growth inhibition;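 further: spheroids exposed to compounds for 7 days before readout; 100% = DMSO vehicle control wells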
assayContext: second compound 0.3 µM; first compound 3.16 µM; active compounds read low
Reported viability, T/C values follow for various compounds

compound	resultUnit	viability, T/C
CC(C)n1c(=O)n(C)c2cnc3cc(F)c(-c4ccc(OCCCN5CCCCC5)nc4)cc3c21 + CC[C@@]1(O)C(=O)OCc2c1cc1n(c2=O)Cc2cc3c(CN(C)C)c(O)ccc3nc2-1	%	78.5
COc1cc(C)[nH]c(=O)c1CN1CCc2c(Cl)cc(C(OC)C3COC3)c(Cl)c2C1=O (stereo unspecified) + CC[C@@]1(O)C(=O)OCc2c1cc1n(c2=O)Cc2cc3c(CN(C)C)c(O)ccc3nc2-1	%	95.8
[2H]c1nc(C)nc([2H])c1-c1cc(NC[C@@H](C)c2cccc3c(C(=O)NC)ccnc23)ncn1 + CC[C@@]1(O)C(=O)OCc2c1cc1n(c2=O)Cc2cc3c(CN(C)C)c(O)ccc3nc2-1	%	104
CC1COCCN1c1cc(-c2ccnn2C)c2ccnc(-c3ccn[nH]3)c2n1 (stereo unspecified) + CC[C@@]1(O)C(=O)OCc2c1cc1n(c2=O)Cc2cc3c(CN(C)C)c(O)ccc3nc2-1	%	43.4
Cc1cc(C)c(CNC(=O)c2cc(-c3ccc(CN4CCOCC4)cc3)cc3c2cnn3C2CCCC2)c(=O)[nH]1 + CC[C@@]1(O)C(=O)OCc2c1cc1n(c2=O)Cc2cc3c(CN(C)C)c(O)ccc3nc2-1	%	79.9
COc1ccc([C@@H](O)c2cc(-c3ncnc4cc(N5CCOCC5)ccc34)c(F)cc2Cl)nn1 + CC[C@@]1(O)C(=O)OCc2c1cc1n(c2=O)Cc2cc3c(CN(C)C)c(O)ccc3nc2-1	%	43.1

Where do the numbers come from? From PubChem BioAssay AID1845208.
